Hello, the source for this data is paper PMC6628374, in case you need it.

biological target: Rabbit lung ACE (Oryctolagus cuniculus); construct: Enzymes including pepsin, pancreatin and rabbit lung ACE were purchased from Sigma Chemical Co; purchased Sigma Chemical Co. (St. Louis, MO, USA); host or cells: rabbit lung (tissue-derived); experiment: ACE inhibition assay (RP-HPLC, HHL substrate); format: biochemical; settings: identified peptides of peaks E6 to E9; read-out: IC50
Peptide text beside a SMILES is read from it.
endpoint.label: IC50 (µM)

Worked cases, answers included:
CC[C@H](C)[C@H](N)C(=O)N[C@@H](Cc1c[nH]c2ccccc12)C(=O)N[C@@H](Cc1c[nH]c2ccccc12)C(=O)O [Peak E8, Ile-Trp-Trp] (H-Ile-Trp-Trp-OH) = 0.51
C[C@H](N)C(=O)N[C@@H](Cc1c[nH]c2ccccc12)C(=O)N[C@@H](Cc1c[nH]c2ccccc12)C(=O)O [Peak E7, Ala-Trp-Trp] (H-Ala-Trp-Trp-OH) = 9.4

1: CC(C)C[C@H](NC(=O)[C@@H](N)Cc1c[nH]c2ccccc12)C(=O)O [Peak E9, Trp-Leu] (H-Trp-Leu-OH; N-terminus and C-terminus assumed)
2: C[C@H](NC(=O)[C@H](C)NC(=O)[C@@H](N)Cc1c[nH]c2ccccc12)C(=O)O [Peak E6, Trp-Ala-Ala] (H-Trp-Ala-Ala-OH)
q: Sorting by IC50 in descending order, would 1 or 2 appear first? // respond with label for picked entry
a: 2
(2: 118 µM, 1: 26.8 µM)

###

target: Rabbit lung ACE (Oryctolagus cuniculus, UniProt P12822); construct: Enzymes including pepsin, pancreatin and rabbit lung ACE were purchased from Sigma Chemical Co; purchased Sigma Chemical Co. (St. Louis, MO, USA); host or cells: rabbit lung (tissue-derived); test: ACE inhibition assay (RP-HPLC, HHL substrate); assay type: biochemical; settings: identified peptides of peaks E6 to E9; equivalent of the μM value; read-out: IC50 (mg/mL) (converted)
Peptide text beside a SMILES is read from it.
endpoint.label: IC50 (µM)

a: CC(C)C[C@H](NC(=O)[C@@H](N)Cc1c[nH]c2ccccc12)C(=O)O [Peak E9, Trp-Leu] (H-Trp-Leu-OH; N-terminus and C-terminus assumed)
b: C[C@H](N)C(=O)N[C@@H](Cc1c[nH]c2ccccc12)C(=O)N[C@@H](Cc1c[nH]c2ccccc12)C(=O)O [Peak E7, Ala-Trp-Trp] (H-Ala-Trp-Trp-OH)
c: C[C@H](NC(=O)[C@H](C)NC(=O)[C@@H](N)Cc1c[nH]c2ccccc12)C(=O)O [Peak E6, Trp-Ala-Ala] (H-Trp-Ala-Ala-OH)
d: CC[C@H](C)[C@H](N)C(=O)N[C@@H](Cc1c[nH]c2ccccc12)C(=O)N[C@@H](Cc1c[nH]c2ccccc12)C(=O)O [Peak E8, Ile-Trp-Trp] (H-Ile-Trp-Trp-OH)
q: Please order the records by their reported IC50, lowest number first. Would you mind listing the labels in the order asked for?
a: d, b, a, c
(d: 0.516 µM, b: 9.4 µM, a: 26.8 µM, c: 119 µM)

###

Biological target: Rabbit lung ACE (Oryctolagus cuniculus, UniProt P12822)
Construct: Enzymes including pepsin, pancreatin and rabbit lung ACE were purchased from Sigma Chemical Co; purchased Sigma Chemical Co. (St. Louis, MO, USA); host or cells: rabbit lung (tissue-derived)
Sequence (P12822 34-1310): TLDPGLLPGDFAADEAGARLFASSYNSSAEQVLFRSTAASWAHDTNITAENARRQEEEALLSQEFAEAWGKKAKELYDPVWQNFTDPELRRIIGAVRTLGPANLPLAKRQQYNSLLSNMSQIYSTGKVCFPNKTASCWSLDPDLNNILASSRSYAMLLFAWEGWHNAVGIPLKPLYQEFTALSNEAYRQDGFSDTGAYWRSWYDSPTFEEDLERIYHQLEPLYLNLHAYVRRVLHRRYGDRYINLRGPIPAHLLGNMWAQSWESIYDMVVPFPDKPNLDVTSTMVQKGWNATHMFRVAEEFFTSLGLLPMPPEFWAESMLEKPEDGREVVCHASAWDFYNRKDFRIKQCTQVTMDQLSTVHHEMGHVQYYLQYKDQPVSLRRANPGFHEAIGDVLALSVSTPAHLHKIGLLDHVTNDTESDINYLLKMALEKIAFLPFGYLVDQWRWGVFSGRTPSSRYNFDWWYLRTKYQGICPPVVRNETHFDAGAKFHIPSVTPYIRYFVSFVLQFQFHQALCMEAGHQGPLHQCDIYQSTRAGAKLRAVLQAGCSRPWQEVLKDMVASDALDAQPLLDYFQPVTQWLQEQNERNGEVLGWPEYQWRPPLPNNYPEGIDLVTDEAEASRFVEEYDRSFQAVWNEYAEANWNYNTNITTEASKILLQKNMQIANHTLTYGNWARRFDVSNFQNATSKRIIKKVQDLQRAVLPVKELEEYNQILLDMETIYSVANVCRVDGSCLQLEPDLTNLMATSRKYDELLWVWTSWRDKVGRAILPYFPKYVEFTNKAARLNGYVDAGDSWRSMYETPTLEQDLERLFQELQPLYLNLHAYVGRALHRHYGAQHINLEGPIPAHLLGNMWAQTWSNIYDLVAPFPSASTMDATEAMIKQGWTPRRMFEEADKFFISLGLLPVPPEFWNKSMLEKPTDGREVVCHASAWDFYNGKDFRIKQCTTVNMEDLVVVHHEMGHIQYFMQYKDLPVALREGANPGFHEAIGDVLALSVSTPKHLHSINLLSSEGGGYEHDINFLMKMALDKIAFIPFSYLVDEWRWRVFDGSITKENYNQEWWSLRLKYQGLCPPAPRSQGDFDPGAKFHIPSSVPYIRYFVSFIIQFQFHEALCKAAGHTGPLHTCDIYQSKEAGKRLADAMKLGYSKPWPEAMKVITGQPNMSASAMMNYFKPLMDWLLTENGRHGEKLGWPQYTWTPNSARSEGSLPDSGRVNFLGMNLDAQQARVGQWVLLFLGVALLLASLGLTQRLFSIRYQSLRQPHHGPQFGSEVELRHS
Assay: ACE inhibition assay (RP-HPLC, HHL substrate)
Type: biochemical
Details: RP-HPLC peaks of fraction E from PX-5G, at the peak's own peptide concentration
Peptide text beside a SMILES is read from it.
endpoint.label: Inhibition (%)

Worked cases, answers included:
C[C@H](N)C(=O)N[C@@H](Cc1c[nH]c2ccccc12)C(=O)N[C@@H](Cc1c[nH]c2ccccc12)C(=O)O [Peak E7, Ala-Trp-Trp] (H-Ala-Trp-Trp-OH) = 81.1
C[C@H](NC(=O)[C@H](C)NC(=O)[C@@H](N)Cc1c[nH]c2ccccc12)C(=O)O [Peak E6, Trp-Ala-Ala] (H-Trp-Ala-Ala-OH) = 41.9

A: CC[C@H](C)[C@H](N)C(=O)N[C@@H](Cc1c[nH]c2ccccc12)C(=O)N[C@@H](Cc1c[nH]c2ccccc12)C(=O)O [Peak E8, Ile-Trp-Trp] (H-Ile-Trp-Trp-OH)
B: CC(C)C[C@H](NC(=O)[C@@H](N)Cc1c[nH]c2ccccc12)C(=O)O [Peak E9, Trp-Leu] (H-Trp-Leu-OH; N-terminus and C-terminus assumed)
q: # return whichever of A and B has the smaller Inhibition (%) // respond with label for picked entry
a: B
